- target under test: T1, rhNR10 (recombinant human NR10) (human, UniProt Q8NI17 20-519, limits assumed)
- T1 construct: also called IL-31 receptor; IL31RA
- T1 sequence: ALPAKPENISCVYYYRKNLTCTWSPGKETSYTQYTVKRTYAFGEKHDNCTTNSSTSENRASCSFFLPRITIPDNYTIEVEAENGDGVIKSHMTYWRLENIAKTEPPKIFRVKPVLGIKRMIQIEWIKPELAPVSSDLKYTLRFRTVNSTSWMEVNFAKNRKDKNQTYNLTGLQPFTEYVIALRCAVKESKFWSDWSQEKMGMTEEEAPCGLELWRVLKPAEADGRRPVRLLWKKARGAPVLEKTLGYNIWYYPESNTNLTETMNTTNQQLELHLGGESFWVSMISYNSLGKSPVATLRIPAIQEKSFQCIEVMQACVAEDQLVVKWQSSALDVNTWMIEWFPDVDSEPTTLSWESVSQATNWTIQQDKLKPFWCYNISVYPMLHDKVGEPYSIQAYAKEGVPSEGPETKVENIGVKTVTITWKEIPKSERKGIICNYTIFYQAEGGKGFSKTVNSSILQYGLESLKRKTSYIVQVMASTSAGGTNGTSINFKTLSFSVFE
- method notes: SPR, Biacore T100; antibody captured on Protein A, rhNR10 as analyte
Below, each entry is listed with its recorded kon.
Please give a number only; it is taken to be in M⁻¹ s⁻¹.

binder	result unit	kon
Ha111L0 (Ha111-SKSC / L0) (antibody, V domains shown) VH: QVQLVQSGAEVKKPGASVKVSCKASGYTFTGYILNWVRQAPGQGLEWMGLINPYNGGTSYNQKFKGRVTITADESTSTAYMELSSLRSEDTAVYYCARDGYDDGPYTMDYWGQGTLVTVSS VL: DIQMTQSPSSLSASVGDRVTITCRTSENIYSFLAWYQQKPGKAPKLLIYNAKTLAKGVPSRFSGSGSGTDFTLTISSLQPEDFATYYCQHHYESPLTFGGGTKVEIKR	M⁻¹ s⁻¹	260000

With those in mind, consider the next binder.
Report kon, nothing else, for this binder: H0La328 (H0-SKSC / La328) (antibody, V domains shown) VH: QVQLVQSGAEVKKPGASVKVSCKASGYTFTGYIMNWVRQAPGQGLEWMGLINPYNGGTSYNQKFKGRVTITADESTSTAYMELSSLRSEDTAVYYCARDGYDDGPYTMDYWGQGTLVTVSS VL: DIQMTQSPSSLSASVGDRVTITCRTSENIYSFLAWYQQKPGKAPKLLIYNAKTLAKGVPSRFSGSGSGTDFTLTISSLQPEDFATYYCQHHYEDPLTFGGGTKVEIKR 180000
